The values you see were collected from patent US20230399411A1.

// reported Papp B→A at 2 h for each item listed
methodSummary: Caco-2 flux assay for cell permeability
Format: in vitro ADME
experimentalSetup: human; Caco-2, 2 hours
Give your result in ×10⁻⁶ cm/s as a bare value.

[
  {
    "compound": "CC(C)(C)[C@H](c1cc(-c2cc(F)ccc2F)cn1Cc1ccccc1)N(CCCN)C(=O)CSC[C@H](NC(=O)CCOCCOCCOCCOCCNC(=O)CNC(=O)C(CC(=O)O)SC[C@H](N)C(=O)O)C(=O)O.O=C(O)C(F)(F)F.O=C(O)C(F)(F)F (some centres unmarked)",
    "Papp B→A at 2 h / ×10⁻⁶ cm/s": 0.05
  }
]

Okay, next one:
If you can, please state the reported Papp B→A at 2 h value of CC(C)(C)[C@H](c1cc(-c2cc(F)ccc2F)cn1Cc1ccccc1)N(CCCN)C(=O)CSC[C@H](NC(=O)CCOCCOCCOCCOCCNC(=O)CNC(=O)CC(SC[C@H](N)C(=O)O)C(=O)O)C(=O)O.O=C(O)C(F)(F)F.O=C(O)C(F)(F)F (some centres unmarked) . 0.089
